Test: Drug solubility limit in growth medium
Assay type: physicochemical
Details: plasma or biological fluid
assay metric: solubility

molecule: O=C(c1ccccc1)c1ccc2n1CCC2C(=O)O (centres unmarked)
solubility: ~18 mg/mL

Now for a further molecule.
Lookup: What does the record list as solubility for CCCCN1CCCCC1C(=O)Nc1c(C)cccc1C (centres unmarked) ?
Found: ~15 mg/mL
